Data provenance is patent US20260217863A1.

- Target Entity: T1, Ribonuclease A (Type II-A) from bovine pancreas (bovine, UniProt P61823 27-150)
- T1 sequence (looked up): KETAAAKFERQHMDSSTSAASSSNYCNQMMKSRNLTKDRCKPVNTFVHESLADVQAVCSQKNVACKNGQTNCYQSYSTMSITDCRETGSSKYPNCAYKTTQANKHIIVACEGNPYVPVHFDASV
- Assay Overview: cell-based or functional assay
Recorded measurements of IC50, cCMP assay (hydrolysis of 2',3'-cyclic CMP, absorbance at 286 nM), one per entry
Metric Name: IC50, cCMP assay (hydrolysis of 2',3'-cyclic CMP, absorbance at 286 nM)

{"columns": ["Binder", "Value Units", "Value"],
 "data": [
  ["Fv-3, expressed soluble Fv antibody of clone 39 (His-tag-TdTomato-VH) (other, Fusion protein made in E. coli; 69.2 kDa; No light chain; not shown: His-tag; TdTomato fluorescent protein) EVQLVESAAEVRRPGASVKITCKASGYSFSTYGIQWMRQAPGQRPEWLGWIHAGTGGTKYSRKFQGRITITRDTSANTVYLDLNSLTSEDTAVYYCARDGTAKKSRKDDWGQGTTVTVSS", "nM", 196],
  ["YGPVGRVKRDD (also called peptides-2) [Peptide-2, synthetic peptide with the CDR3 sequence of the screened clone]", "nM", 373],
  ["CGPDSDVMTDF (Bought from Peptron, 90% purity; Peptide-1 is tied to the CDR3 of clone 5 / Fv-1 by the order of the names only; also called peptides-1) [Peptide-1, synthetic peptide with the CDR3 sequence of the screened clone]", "nM", 607],
  ["DGTAKKSRKDD (also called peptides-3) [Peptide-3, synthetic peptide with the CDR3 sequence of the screened clone]", "nM", 356]
]}
